# System: P388 leukemia ip, CD2F1 mice, survival T/C
# procedureDetails: NCI In Vivo Anticancer Drug Screen. Data for tumor model P388 Leukemia (intraperitoneal) in CD2F1 (CDF1) mice
# details: endpoint: median survival time; dose: 15.0 mg/kg/injection; schedule: Q01DX005 (ip); vehicle: saline with Tween-80; higher = longer survival
Inconclusive results and toxic doses are left out.
Quick list: T/C per entry.

CCCCOc1ccc(/C=N/NC(=O)CNC(=O)Nc2cccc([N+](=O)[O-])c2)cc1 : 98 % of control
Nc1ccc(CCCCc2ccc(S(=O)(=O)F)cc2Cl)c(Cl)c1 : 101 % of control
Nc1nc(N)c2nc(-c3ccc([N+](=O)[O-])cc3)c(Cl)nc2n1 : 98 % of control
O=C1OC(OC/C(Br)=C(\Br)COC2OC(=O)C(Cl)=C2Cl)C(Cl)=C1Cl (centres undefined) : 103 % of control
CCCn1c(C)nc2cc(C(F)(F)F)cc([N+](=O)[O-])c21 : 94 % of control
Cc1cc2cc3c4c(nnc(NN)c4c2o1)-c1ccccc1CC3 : 99 % of control
CCC1C2CC3C4N(C)c5ccccc5C45CC(C2C5O)N3C1O (centres undefined) : 100 % of control
O=c1oc2ccc(Br)cc2cc1-n1nnc2ccccc21 : 88 % of control
COc1cc(Br)c(CC(NC=O)c2ccc3c(c2)OCO3)cc1OC (centres undefined) : 107 % of control
COC1=C(OC)C(=O)C2=C(OCCCCO2)C1=O : 104 % of control

Case N#Cc1c2c(c(N3CCCCC3)n3c1nc1ccccc13)CCC2 , P388 leukemia ip, CD2F1 mice, survival T/C, T/C recorded as 98 % of control

Case Fc1ccccc1C(Nc1nncs1)Nc1nncs1 , P388 leukemia ip, CD2F1 mice, survival T/C, T/C recorded as 95 % of control

Case C=c1cc2c(cc1=C)C(=O)c1ccccc1C2=O , P388 leukemia ip, CD2F1 mice, survival T/C, T/C recorded as 89 % of control

Case O=C(Nc1ccc(Cl)cc1)Nc1nnc(-c2ccc(F)cc2)o1 , P388 leukemia ip, CD2F1 mice, survival T/C, T/C recorded as 100 % of control
